Where these numbers come from: PubChem BioAssay AID1159580

Test: chemical genetic growth profiling, strain panel (AID 1159580);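 note: tested at 20 µM; growth read once vehicle control cultures reached saturation at 30 °C; 1 = growth at the plate median or of vehicle wells; lower values mean less growth of the strain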
Settings: S. cerevisiae deletion strains, growth OD, locus YLR268W, strain sec22
The campaign covered roughly 5,500 compounds. About 2,000 (36%) were called active. Inconclusive results (about 18%) are left out. Cut-off read from the data, not from the text of the source: active = normalized growth mostly below about 0.91 (no sharp cut-off); inconclusive = no clear call, values can overlap the other calls; inactive = mostly above about 0.92. The list shows a part of the results.
Possible outcomes: 1 (yes) (active), 0 (no) (inactive)

Compound | Class Label
COc1ccc2c(c1)OC[C@@H](Cc1ccc(OC)c(OC)c1)[C@@H]2O | 0 (no)
CCc1ccc(CCOc2ccc(CC3SC(=O)NC3=O)cc2)nc1 (configuration not stated) | 0 (no)
OC(CCN1CCCCC1)(c1ccccc1)c1ccccc1 | 0 (no)
Cc1ccc(C(=O)C(C)CN2CCCCC2)cc1 (configuration not stated) | 0 (no)
Cn1cc[nH]c1=S | 0 (no)
CC[C@@H](CO)NCCN[C@@H](CC)CO | 0 (no)
CC(=O)[C@H]1CCC2C3C[C@H](C)C4=CC(=O)CC[C@]4(C)C3[C@@H](O)C[C@@]21C (some centres not stated) | 0 (no)
CC1(C)C2CC[C@]3(C)C(C(=O)C=C4[C@@H]5C[C@@](C)(C(=O)O)CC[C@]5(C)CC[C@]43C)[C@@]2(C)CC[C@@H]1O (some centres not stated) | 0 (no)
CC1(C)C2CC[C@]3(C)C(C(=O)C=C4[C@H]5C[C@@](C)(C(=O)O)CC[C@]5(C)CC[C@]43C)[C@@]2(C)CC[C@@H]1O (some centres not stated) | 0 (no)
COc1ccc2c(c1)[C@@]1(C)CCC(=O)C[C@H]1CC2 | 0 (no)
O=C(O)COc1cc(Cl)c(Cl)cc1Cl | 0 (no)
COc1cccc2c1CCC1CC(=O)CCC21C (configuration not stated) | 0 (no)
O=[N+]([O-])O[C@H]1CO[C@H]2[C@@H]1OC[C@H]2O[N+](=O)[O-] | 0 (no)
COC(=O)COc1cc(Cl)c(Cl)cc1Cl | 0 (no)
O=C(O)C1CC([C@@H]2CCCCN2)CN2CCCCC12 (some centres not stated) | 0 (no)
NC(N)=NOCC[C@H](N)C(=O)O | 0 (no)
COc1c(CC=C(C)C)c2c(c3oc(=O)c(-c4ccc(O)cc4)c(O)c13)C=CC(C)(C)O2 | 1 (yes)

* * *

Catalogue of compounds with associated normalized growth
Assay: chemical genetic growth profiling, strain panel (AID 1159580);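 note: tested at 20 µM; growth read once vehicle control cultures reached saturation at 30 °C; 1 = growth at the plate median or of vehicle wells; lower values mean less growth of the strain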
Settings: S. cerevisiae deletion strains, growth OD, locus YMR263W, strain SAP30, hits give low values
The whole screen tested about 5,500 compounds, of which about 2,000 (36%) were called active. Inconclusive results (about 18%) are left out. The list shows a part of the results.

Compound | normalized growth
Nc1nc2[nH]c(=O)c(=O)[nH]c2c(=O)[nH]1 | 1.01
CNC(=S)NN=C(N)c1ccccn1 | 1.01
CC(=O)OCc1ccc(/C=C(\C#N)S(=O)(=O)c2ccc(Cl)cc2)o1 | 1.06
N=c1nc(N2CCCCC2)cc(N)n1O | 0.993
COc1cccc2c1CCC1CC(=O)CCC21C (configuration not stated) | 0.965
Cc1c(N(C)C)c(=O)n(-c2ccccc2)n1C | 0.989
c1ccc(CC2=NCCN2)cc1 | 0.978
O=c1[nH]c2cccnc2[nH]c1=O | 1.01
CC(C)=CCc1c(O)cc2oc(C)cc(=O)c2c1O | 0.992
O=C(O)CSCCOc1ccccc1 | 1.01
CCC(C(=O)O)c1ccccc1 (configuration not stated) | 1.01
Cc1c(Cl)cccc1SCC(=O)O | 0.941
CC(C)CC1C(=O)N2CCC[C@H]2C2(O)O[C@](NC(=O)C3C=C4c5cccc6[nH]c(Br)c(c56)C[C@H]4N(C)C3)(C(C)C)C(=O)N12 (some centres not stated) | 0.981
Cc1nn(-c2ccccc2)nc1C(=O)NC(=O)N1CCCC1 | 0.987
CO[C@H]1C[C@H](O[C@H]2[C@H](C)[C@@H](OC3O[C@H](C)C[C@H](N(C)C)[C@H]3O)[C@@H](C)C[C@]3(CO3)C(=O)[C@H](C)[C@@H](O)[C@@H](C)[C@@H](C)OC(=O)[C@@H]2C)O[C@@H](C)[C@@H]1O (some centres not stated) | 1.02
CC(C)(C)CC(C)(C)c1ccc(OCCOCC[N+](C)(C)Cc2ccccc2)cc1 | 0.991
CN1C(=O)CN=C(c2ccccc2)c2ccccc21 | 0.981
